Target: T1, rat VEGF164 (rat, UniProt P16612)
T1 chain: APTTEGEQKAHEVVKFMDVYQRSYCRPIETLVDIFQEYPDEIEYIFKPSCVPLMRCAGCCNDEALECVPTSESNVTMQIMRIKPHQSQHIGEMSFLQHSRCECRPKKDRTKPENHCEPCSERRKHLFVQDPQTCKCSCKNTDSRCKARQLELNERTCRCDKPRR
Experiment: SPR, pH 5
Recorded measurements of pKd, one per entry
# pKd = -log10(concentration in molar units)

As a guide, the following entries are already answered.
binder	pKd
578min_max T84N_V89L (1008) (antibody, V domains shown) VH: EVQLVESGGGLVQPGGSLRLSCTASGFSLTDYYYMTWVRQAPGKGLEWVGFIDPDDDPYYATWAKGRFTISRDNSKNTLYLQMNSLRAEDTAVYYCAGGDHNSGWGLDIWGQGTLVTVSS VL: EIVMTQSPSTLSASVGDRVIITCQASEIIHSWLAWYQQKPGKAPKLLIYLASTLASGVPSRFSGSGSGAEFTLTISSLQPDDFATYYCQNVYLASTNGANFGQGTKLTVLG	8.72
578min_max T84N_V89L_DHP (1017) (antibody, V domains shown) VH: EVQLVESGGGSVQPGGSLRLSCTASGFSLTDYYYMTWVRQAPGKGLEWVGFIDPDDDPYYATWAKGRFTISRDNSKNTLYLQMNSLRAEDTATYYCAGGDHNSGWGLDIWGQGTTVTVSS VL: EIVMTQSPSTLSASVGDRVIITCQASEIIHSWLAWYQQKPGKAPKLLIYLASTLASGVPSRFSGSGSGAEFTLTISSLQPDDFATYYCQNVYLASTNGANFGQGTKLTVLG	8.74
578minmax (903) (antibody, V domains shown) VH: EVQLVESGGGLVQPGGSLRLSCTASGFSLTDYYYMTWVRQAPGKGLEWVGFIDPDDDPYYATWAKGRFTISRDTSKNTVYLQMNSLRAEDTAVYYCAGGDHNSGWGLDIWGQGTLVTVSS VL: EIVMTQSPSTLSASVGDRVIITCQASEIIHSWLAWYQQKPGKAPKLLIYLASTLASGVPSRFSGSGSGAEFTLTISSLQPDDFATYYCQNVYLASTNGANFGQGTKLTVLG	9.13

Next binder, please.
Tell me the measured pKd of 578minmax FW1.4_DHP (961) (antibody, V domains shown) VH: EVQLVESGGGSVQPGGSLRLSCTASGFSLTDYYYMTWVRQAPGKGLEWVGFIDPDDDPYYATWAKGRFTISRDTSKNTVYLQMNSLRAEDTATYYCAGGDHNSGWGLDIWGQGTTVTVSS VL: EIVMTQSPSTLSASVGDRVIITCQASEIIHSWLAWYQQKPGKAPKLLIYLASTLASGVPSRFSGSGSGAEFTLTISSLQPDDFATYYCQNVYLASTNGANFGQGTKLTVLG , please. 9.07
